The reader will find reported melting point values listed item by item below.

Sample answers from the record:
>>> print(df.to_string())
                                   compound   readoutlabel         result
0  Cc1nc2c3c(c(C(=O)NC4CC4)cc2n1C)CCC(c1ccccc1)O3 (stereo not drawn)  melting point  312 to 313 °C
1  COCCNC(=O)c1cc2c(nc(C)n2C)c2c1CCC(c1ccccc1)O2 (stereo not drawn)  melting point  254 to 256 °C

// moving on: another record for melting point
Query: Return value of melting point for input CCOC(=O)c1cc2c(nc(C)n2C)c2c1CCC(c1ccccc1)O2 (stereo not drawn) , no commentary.
Response: 172 to 173 °C

###

readoutLabel: melting point

>>> df
                                   compound         result
0  COCn1c(C)nc2c3c(c(C(=O)N(C)C)cc21)CCC(c1ccccc1)O3 (stereo not drawn)  213 to 215 °C

Query: For the compound Cc1nc2c3c(c(C(N)=O)cc2n1C)CCC(c1ccccc1)N3 (stereo not drawn) , report melting point.
Response: 311 to 319 °C

Query: Supply measured melting point of CC(=O)N(C)c1cc2c(nc(C)n2C)c2c1CCC(c1ccccc1)O2 (stereo not drawn) in your reply.
Response: 214 to 216 °C
